Source: patent US10358672B2

Test: Photometric activity determination of 7β-HSDH and mutants (decrease in absorbance at 340 nm, DHCA reduction with NADPH)
Assay type: biochemical
Conditions: Table 4, variants modified at position 64; 10 mM DHCA, NADPH, KPi pH 8.0
Recorded Volumetric activity, one value per entry.
The answer is to be given in U/ml; state only the numeric part.

// worked examples, Volumetric activity included
response.value for 7β-HSDH [R64W]: 7β-HSDH mutant, R in position 64 replaced by W (protein, UniProt A4ECA9 1-263, looked up, variant R64W) 7beta-hydroxysteroid …: MNLREKYGEWGLILGATEGVGKAFCEKIAAGGMNVVMVGRREEKLNVLAGEIRETYGVETKVVWADFSQPGAAETVFAATEGLDMGFMSYVACLHSFGKIQDTPWEKHEAMINVNVVTFLKCFHHYMRIFAAQDRGAVINVSSMTGISSSPWNGQYGAGKAFILKMTEAVACECEGTGVDVEVITLGTTLTPSLLSNLPGGPQGEAVMKIALTPEECVDEAFEKLGKELSVIAGQRNKDSVHDWKANHTEDEYIRYMGSFYRD (field: Volumetric activity) = 214

Form: molecule = 7β-HSDH [R64G]: 7β-HSDH mutant, R in position 64 replaced by G (protein, UniProt A4ECA9 1-263, looked up, variant R64G) 7beta-hydroxysteroid …: MNLREKYGEWGLILGATEGVGKAFCEKIAAGGMNVVMVGRREEKLNVLAGEIRETYGVETKVVGADFSQPGAAETVFAATEGLDMGFMSYVACLHSFGKIQDTPWEKHEAMINVNVVTFLKCFHHYMRIFAAQDRGAVINVSSMTGISSSPWNGQYGAGKAFILKMTEAVACECEGTGVDVEVITLGTTLTPSLLSNLPGGPQGEAVMKIALTPEECVDEAFEKLGKELSVIAGQRNKDSVHDWKANHTEDEYIRYMGSFYRD ; Volumetric activity = 223

---
molecule 7β-HSDH [R64N]: 7β-HSDH mutant, R in position 64 replaced by N (protein, UniProt A4ECA9 1-263, looked up, variant R64N) 7beta-hydroxysteroid …: MNLREKYGEWGLILGATEGVGKAFCEKIAAGGMNVVMVGRREEKLNVLAGEIRETYGVETKVVNADFSQPGAAETVFAATEGLDMGFMSYVACLHSFGKIQDTPWEKHEAMINVNVVTFLKCFHHYMRIFAAQDRGAVINVSSMTGISSSPWNGQYGAGKAFILKMTEAVACECEGTGVDVEVITLGTTLTPSLLSNLPGGPQGEAVMKIALTPEECVDEAFEKLGKELSVIAGQRNKDSVHDWKANHTEDEYIRYMGSFYRD , Volumetric activity observed: 3.4

Entry 7β-HSDH [R64S]: 7β-HSDH mutant, R in position 64 replaced by S (protein, UniProt A4ECA9 1-263, looked up, variant R64S) 7beta-hydroxysteroid …: MNLREKYGEWGLILGATEGVGKAFCEKIAAGGMNVVMVGRREEKLNVLAGEIRETYGVETKVVSADFSQPGAAETVFAATEGLDMGFMSYVACLHSFGKIQDTPWEKHEAMINVNVVTFLKCFHHYMRIFAAQDRGAVINVSSMTGISSSPWNGQYGAGKAFILKMTEAVACECEGTGVDVEVITLGTTLTPSLLSNLPGGPQGEAVMKIALTPEECVDEAFEKLGKELSVIAGQRNKDSVHDWKANHTEDEYIRYMGSFYRD — recorded Volumetric activity = 333.7
